# Test method notes: Chromatographic hydrophobicity index, log D of the compound at pH 7.4 by reverse-phase HPLC analysis
# Assay type: physicochemical
# Setup conditions: buffer
Quantity kind: chromatographic logD

The cases that follow already have their chromatographic logD on record.
CC(C)(C)C(=O)N1CCC1c1ccccc1 (configuration not stated)
5
CC(C)(C)C(=O)N1CCCCC1c1ccccc1 (configuration not stated)
6.7
O=C(C1CCCCC1)N1N=CCC1c1ccccc1 (configuration not stated)
5.9

(1) CC(C)C(=O)N1N=CCC1c1ccccc1 (configuration not stated)
(2) O=C(c1c[nH]nn1)N1CCC(C(=O)N2N=CCC2c2ccccc2)CC1 (configuration not stated)
Q. Looking at recorded values for chromatographic logD, does 1 or 2 come in lower? Lab log: write the label of the selected item as the result.
A. 2

(I) CC(C)(C)C(=O)N1N=CCC1c1cccnc1 (configuration not stated)
(II) CC(C)(C)C(=O)N1CCOCC1c1ccccc1 (configuration not stated)
Q. Looking at recorded values for chromatographic logD, does I or II come in lower? Lab log: write the label of the selected item as the result.
A. I

###

# Test method notes: Chromatographic hydrophobicity index, log D of the compound at pH 7.4 by reverse-phase HPLC analysis
# Assay type: physicochemical
# Setup conditions: buffer
Quantity kind: chromatographic logD

Cc1ccc(C2CC=NN2C(=O)C(C)(C)C)cc1 (stereo not given)
6.4

(I) O=C(c1ccccc1)N1CCC(C(=O)N2N=CCC2c2ccccc2)CC1 (stereo not given)
(II) CC(C)(C)C(=O)N1N=CCC1C1CCCC1 (stereo not given)
Q. Which shows the larger chromatographic logD value: I or II ? Lab log: write the label of the selected item as the result.
A. II

(P) O=C(c1ccccc1)N1N=CCC1c1ccccc1 (stereo not given)
(Q) CC(C)(C)C(=O)n1nccc1-c1ccccc1
Q. Which shows the larger chromatographic logD value: P or Q ? Lab log: write the label of the selected item as the result.
A. Q
